Tested on: RAW-Dual (murine macrophage reporter line)
EXPERIMENTAL PROTOCOL: NF-kB reporter (SEAP) activity fold change vs agonist alone; higher = enhanced NF-kB activity
STUDY CONDITIONS: modulator concentration 10 µM; agonist: MPLA […]
NF-kB reporter reference
QUANTITY MEASURED: NF-kB reporter

# MOLECULE, RECORDED MEASUREMENT
measured = [
    ("C/C(=C(\\CCOP(=O)(O)O)SC(=O)c1ccccc1)N(C=O)Cc1cnc(C)nc1N [Prestw-654]", 1.1),
    ("CC(C)Cn1cc(Cl)c(=O)n(CC(C)C)c1=O", 1.01),
    ("CCCCNCCCCOc1ccc(C)cc1C(C)(C)C", 1.38),
    ("Cc1n[nH]c(C)c1CCC(=O)NC1CCC(F)(F)CC1", 0.879),
    ("CCN(CC)CCOC(=O)c1ccc(N)cc1.Cl", 1.89),
    ("COC(=O)C(CCSC)NC(=O)c1cc(OC)c(OC)c(OC)c1 (centres undefined)", 1.1),
    ("CCOc1ccc(C=c2sc3nc4ccccc4n3c2=O)cc1Cl", 0.979),
    ("Cc1nc2ccc(CN(C)c3ccc(C(=O)N[C@@H](CCC(=O)O)C(=O)O)s3)cc2c(=O)[nH]1", 1.18),
    ("CC1=C(C(=O)OCC2CCCO2)C(c2ccc([N+](=O)[O-])cc2)C2=C(CC(C)(C)CC2=O)N1 (centres undefined)", 0.848),
    ("Cc1cc2nc3sc(=Cc4ccccc4OCc4ccc(Cl)cc4Cl)c(=O)n3c2cc1C", 0.962),
    ("C=CCNc1oc(Cc2cccc3ccccc23)nc1C#N", 1.13),
    ("CC(=C(C#N)C(=O)NCc1ccccc1)N(C)C", 1.08),
    ("CCC(C(=O)N1CCC2(CC1)CC2(F)F)c1ccccc1 (centres undefined)", 1.62),
    ("COc1ccc(CC(C)N2CCN(c3cccc(C)c3C)CC2)cc1OC (centres undefined)", 1.03),
    ("CS(=O)(=O)c1ccc(C2=C(c3ccccc3)C(=O)OC2)cc1", 0.975),
    ("CCC(O)=C(C#N)c1nc2ccccc2n1C", 1.18),
    ("CN(C)[C@@H]1C(O)=C(C(N)=O)C(=O)[C@@]2(O)C(O)=C3C(=O)c4c(O)ccc(Cl)c4[C@@H](O)[C@H]3C[C@@H]12.Cl", 1.17),
    ("Cl.OC(CCCN1CCCCC1)(c1ccccc1)c1ccccc1", 0.982),
    ("O=C(C=Cc1ccco1)Nc1ccc(C(=O)O)cc1NC(=O)C=Cc1ccco1", 0.932),
    ("Cc1nnc(C(C)C)n1C1CC2CCC(C1)N2CC[C@H](NC(=O)C1CCC(F)(F)CC1)c1ccccc1 (some centres undefined)", 1.03),
    ("N#CC(=Cc1ccc(-c2ccc(Cl)cc2)o1)C(N)=O", 1.13),
    ("CCN(CC)c1ccc(C=NNc2cc(N3CCOCC3)nc(N3CCOCC3)n2)cc1", 0.994),
    ("CC(C)(C)C(=O)C(Oc1ccc(Cl)cc1)n1ccnc1 (centres undefined)", 1.08),
    ("O=C(NCC1CCN(C(=O)c2ccncc2)CC1)c1ccc(Oc2ccccc2)cc1", 0.893),
    ("Cl.O=C(c1ccc(OCCN2CCCCC2)cc1)c1c(-c2ccc(O)cc2)sc2cc(O)ccc12", 2.12),
    ("CCCCCCCC(O)CC(CC1CCCCC1)C(=O)NN (centres undefined)", 0.977),
    ("Clc1ccc2c(c1)CCc1cccnc1C2=C1CCNCC1", 0.814),
    ("NC(=O)c1ccc(I)c([N+](=O)[O-])c1", 0.828),
    ("Cc1ccc(-n2c(C)cc(C=NNC(=O)CN3CCOCC3)c2C)c(C)c1", 1.09),
    ("CC(C)c1ccc(N(CC(=O)NCCSCc2ccc(Cl)cc2)S(C)(=O)=O)cc1", 0.918),
    ("O=C(Cc1ccc(F)cc1F)N1CCC(n2c(=O)[nH]c3ccccc3c2=O)CC1", 0.997),
    ("COc1ccccc1-c1nnc(NC(=O)c2cc(C)nn2C)o1", 1.01),
    ("COc1cccc(-c2csc(C(C#N)=CNc3cc(Cl)ccc3OC)n2)c1", 0.963),
    ("CC(=O)N1CCc2ccc(NC(=O)C3(c4ccccc4)CCOCC3)cc2C1", 1.4),
    ("CCc1cc(=O)oc2cc(OCC(=O)OC(C)C)ccc12", 1.11),
    ("C[C@]1(O)C[C@@H](c2nc(-c3ccc4ccc(-c5ccccc5)nc4c3)c3c(N)nccn32)C1", 0.899),
    ("COc1ccccc1OCC(O)CN1CCN(CC(=O)Nc2c(C)cccc2C)CC1 (centres undefined)", 1.06),
    ("O=[N+]([O-])c1cc(C(O)(C(F)(F)F)C(F)(F)F)cc([N+](=O)[O-])c1Cl", 0.972),
    ("Cc1cc(=O)[nH]c(-n2nc(C)c(CCC(=O)N3CCN(C)CC3)c2C)n1", 0.977),
    ("Cc1ccc(=O)n(-c2ccccc2)c1", 0.968),
    ("S=C(NCCN1CCCCC1)NCc1ccccc1", 0.99),
    ("COc1ccc(N(CC(=O)Nc2ccccc2C(F)(F)F)S(C)(=O)=O)cc1Cl", 0.979),
    ("COc1ccc(C=NNC(=O)CSc2nnc(-c3ccccc3)n2-c2ccccc2)cc1OC", 1.09),
    ("Cl.Cn1cc(C(=O)[C@@H]2CCc3nc[nH]c3C2)c2ccccc21", 0.878),
]

---

Test system: RAW-Dual (murine macrophage reporter line)
EXPERIMENTAL PROTOCOL: NF-kB reporter (SEAP) activity fold change vs agonist alone; higher = enhanced NF-kB activity
STUDY CONDITIONS: modulator concentration 10 µM; agonist: LPS 0.1 ug/mL
Answer Not satisfied if NF-kB reporter is under 1, and Satisfied if it is 1 or more.

# COMPOUND, CLASS ASSIGNMENT
data = [
    ("Cc1cc(Nc2cc(N3CCN(C)CC3)nc(Sc3ccc(NC(=O)C4CC4)cc3)n2)n[nH]1", "Not satisfied"),
    ("CC(C)(C)N1CC(c2nc3ccccc3n2Cc2c(F)cccc2Cl)CC1=O (stereo not given)", "Satisfied"),
    ("O=C1c2cccc3c2[C@H](CCC3)CN1[C@@H]1CN2CCC1CC2", "Not satisfied"),
    ("O=C(O)c1cc2ccccc2[nH]1", "Not satisfied"),
    ("Cc1cccc2sc(OC3CN(C(=O)Nc4ccccc4C(F)(F)F)C3)nc12", "Satisfied"),
    ("CCC(C)(C)C(=O)OC1CC(C)C=C2C=CC(C)C(CCC3CC(O)CC(=O)O3)C21 (stereo not given)", "Satisfied"),
    ("Cc1ncn(CC(=O)N2CC(Oc3cccc(C(F)(F)F)n3)C2)c(=O)c1C", "Satisfied"),
    ("Cc1ccccc1C(=O)N(Cc1cccnc1)c1nc2c(F)cccc2s1", "Not satisfied"),
    ("Cc1cc(=O)[nH]c(-n2nc(C)c(CCC(=O)N3CCN(C)CC3)c2C)n1", "Satisfied"),
]

---

System: RAW-Dual (murine macrophage reporter line)
EXPERIMENTAL PROTOCOL: IRF reporter (Lucia luciferase) activity fold change vs agonist alone; higher = enhanced IRF activity
STUDY CONDITIONS: modulator concentration 10 µM; agonist: 3'3'-cGAMP 10 ug/mL
Answer n if IRF reporter is under 0.9, and y if it is 0.9 or more.

# COMPOUND, CLASS ASSIGNMENT
rows = [
    ("O=C(COc1ccc2ccccc2c1)NCC#CCN1CCCCC1", "y"),
    ("COc1ccc2ccccc2c1C=C1SC(=S)N(CC(=O)O)C1=O", "y"),
    ("CC(C)(C)C(=O)Oc1ccc(S(=O)(=O)Nc2ccccc2C(=O)NCC(=O)O)cc1", "y"),
    ("C=C(CC)C(=O)c1ccc(OCC(=O)O)c(Cl)c1Cl", "n"),
    ("CCOC(=O)C(CCCOc1c(C)cc(Cl)cc1C)C(=O)OCC", "y"),
    ("Cc1ccc(Nc2nccc(N(C)c3ccc4c(C)n(C)nc4c3)n2)cc1S(N)(=O)=O", "n"),
    ("Cc1cccc2sc(NNC(=O)c3ccc(S(=O)(=O)N4CCc5ccccc5C4)cc3)nc12", "y"),
    ("COc1cc2c(cc1OC)C1C(=O)c3ccc4c(c3OC1CO2)C=CC(C)(C)O4 (stereo unspecified)", "n"),
    ("O=C(NCCN1CCN(c2ccc(F)cc2)CC1)c1ccno1", "y"),
    ("O=C(O)CCc1nc(-c2ccccc2)c(-c2ccccc2)o1", "y"),
]
